# target-or-test-system: D(2) dopamine receptor (Homo sapiens, UniProt P14416)
# Sequence (P14416 whole entry): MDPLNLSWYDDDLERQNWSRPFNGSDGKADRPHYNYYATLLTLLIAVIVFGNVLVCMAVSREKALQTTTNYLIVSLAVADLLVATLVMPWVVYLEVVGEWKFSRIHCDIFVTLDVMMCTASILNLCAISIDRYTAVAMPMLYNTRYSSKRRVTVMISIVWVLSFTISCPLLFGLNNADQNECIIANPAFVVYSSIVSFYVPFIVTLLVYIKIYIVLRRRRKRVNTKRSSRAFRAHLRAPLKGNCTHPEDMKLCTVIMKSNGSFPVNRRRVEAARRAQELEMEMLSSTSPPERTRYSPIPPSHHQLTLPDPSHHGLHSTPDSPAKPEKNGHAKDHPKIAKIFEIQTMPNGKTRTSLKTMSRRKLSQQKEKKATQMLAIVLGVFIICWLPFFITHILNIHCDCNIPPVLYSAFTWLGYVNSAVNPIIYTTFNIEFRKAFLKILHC
# experimental-protocol: Binding affinity to dopamine D2
readout-label: IC50

INSERT INTO measurements (molecular_string, readout_label, recorded_result) VALUES
  ('CN(C)[C@@H]1CC[C@H](c2c[nH]c3ccc(C#N)cc23)C1', 'IC50', '> 30 µM');

* * *

# target-or-test-system: D(1A) dopamine receptor (Homo sapiens, UniProt P21728)
# Sequence (P21728 whole entry): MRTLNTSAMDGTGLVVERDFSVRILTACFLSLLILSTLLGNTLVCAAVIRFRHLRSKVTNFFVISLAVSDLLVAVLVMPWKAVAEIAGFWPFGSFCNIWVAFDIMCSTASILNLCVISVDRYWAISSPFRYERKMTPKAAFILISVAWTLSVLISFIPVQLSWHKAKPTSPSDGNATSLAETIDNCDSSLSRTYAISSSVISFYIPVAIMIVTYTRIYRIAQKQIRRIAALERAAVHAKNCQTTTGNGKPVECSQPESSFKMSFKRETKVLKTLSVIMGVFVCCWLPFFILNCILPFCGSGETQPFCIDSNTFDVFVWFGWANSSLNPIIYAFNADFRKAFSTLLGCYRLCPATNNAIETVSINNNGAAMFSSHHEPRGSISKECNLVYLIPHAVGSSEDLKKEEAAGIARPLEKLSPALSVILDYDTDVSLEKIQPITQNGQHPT
# experimental-protocol: Binding affinity to dopamine D1
readout-label: IC50 (µM)

INSERT INTO measurements (molecular_string, readout_label, recorded_result) VALUES
  ('CN(C)[C@@H]1CC[C@H](c2c[nH]c3ccc(C#N)cc23)C1', 'IC50', 7.2);

* * *

# target-or-test-system: 5-hydroxytryptamine receptor 1A (Homo sapiens, UniProt P08908)
# Sequence (P08908 whole entry): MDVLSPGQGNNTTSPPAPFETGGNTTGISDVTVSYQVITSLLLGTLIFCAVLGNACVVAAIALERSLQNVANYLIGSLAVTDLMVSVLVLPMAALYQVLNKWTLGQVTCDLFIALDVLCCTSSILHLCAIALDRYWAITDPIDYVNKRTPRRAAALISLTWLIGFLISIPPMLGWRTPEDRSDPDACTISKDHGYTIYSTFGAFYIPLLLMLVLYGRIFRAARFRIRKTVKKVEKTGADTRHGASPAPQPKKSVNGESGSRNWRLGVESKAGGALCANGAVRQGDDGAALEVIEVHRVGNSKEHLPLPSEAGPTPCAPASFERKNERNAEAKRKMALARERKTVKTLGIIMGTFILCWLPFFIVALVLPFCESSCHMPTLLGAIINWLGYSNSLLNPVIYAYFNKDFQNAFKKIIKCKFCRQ
pIC50: −log10 of the molar value.
readout-label: pIC50

INSERT INTO results (molecular_string, target_or_test_system, recorded_result) VALUES
  ('CN(C)[C@@H]1CC[C@H](c2c[nH]c3ccc(C#N)cc23)C1', '5-hydroxytryptamine receptor 1A (Homo sapiens, UniProt P08908)', 5.89);

* * *

# experimental-protocol: Tmax in rat at 3 mg/kg, po by microdialysis method
# Type: ADME, organism-based
# Parameters: dose 3 mg/kg, route oral
# test-conditions: in vivo
readout-label: Tmax (h)

INSERT INTO measurements (molecular_string, readout_label, value_unit, recorded_result) VALUES
  ('CN(C)[C@@H]1CC[C@H](c2c[nH]c3ccc(C#N)cc23)C1', 'Tmax', 'h', 1);

* * *

# experimental-protocol: Drug concentration in rat plasma at 3 mg/kg, po after 2 hrs by microdialysis method
# Assay type: ADME, organism-based
# Design: dose 3 mg/kg, route oral
readout-label: concentration at 2 h

INSERT INTO measurements (molecular_string, recorded_result) VALUES
  ('CN(C)[C@@H]1CC[C@H](c2c[nH]c3ccc(C#N)cc23)C1', '820 nM');

* * *

# target-or-test-system: 5-hydroxytryptamine receptor 6 (Homo sapiens)
# Sequence (P50406 whole entry): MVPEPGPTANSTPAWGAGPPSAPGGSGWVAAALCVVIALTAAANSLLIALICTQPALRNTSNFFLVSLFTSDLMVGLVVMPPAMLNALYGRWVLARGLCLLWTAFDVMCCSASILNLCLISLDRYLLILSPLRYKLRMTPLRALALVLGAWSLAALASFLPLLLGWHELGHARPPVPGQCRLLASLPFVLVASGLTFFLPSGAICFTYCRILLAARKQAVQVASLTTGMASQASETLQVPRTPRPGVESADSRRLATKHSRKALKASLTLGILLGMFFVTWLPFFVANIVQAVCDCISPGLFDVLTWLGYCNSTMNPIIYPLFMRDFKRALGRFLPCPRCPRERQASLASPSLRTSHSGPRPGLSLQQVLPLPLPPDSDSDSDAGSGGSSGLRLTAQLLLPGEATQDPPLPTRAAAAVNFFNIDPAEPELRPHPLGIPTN
readout-label: IC50 (nM)

INSERT INTO assay_data (molecular_string, readout_label, recorded_result) VALUES
  ('CN(C)[C@@H]1CC[C@H](c2c[nH]c3ccc(C#N)cc23)C1', 'IC50', 37);
